Source listed as patent EP4725957A1.

Reported IC50 at 72 h values are given for each entry in this list.
- Test method notes: Nephrotoxicity assay: in vitro cytotoxicity of HK-2 cells by CCK-8 assay
- Format: cell-based
- Test conditions: human, HK-2 cells (human renal), 72 h incubation with drug-containing medium
Bridge positions count the residues as written; N and C are the ends. Square brackets hold non-standard residues; d marks the D form. Peptide text beside a SMILES is read from it. * marks the point of attachment. Heptanoyl(6-Me) = CC(C)CCCCC(=O)*; Sulfomethyl = O=S(=O)(O)C*; dDab = NCC[C@@H](N)C(=O)O; Octanoyl = CCCCCCCC(=O)*; Dab = NCC[C@H](N)C(=O)O

CCCCCCCC(=O)N[C@@H](CCN)C(=O)N[C@H](C(=O)N[C@H](CCN)C(=O)N[C@H]1CCNC(=O)[C@H]([C@@H](C)O)NC(=O)[C@H](CCN)NC(=O)[C@H](CCN)NC(=O)[C@H]([C@@H](C)O)NC(=O)[C@@H](Cc2ccccc2)NC(=O)[C@H](CCN)NC1=O)[C@@H](C)O [Compound 13] (Octanoyl-[Dab]T[dDab][Dab][Dab][dF]T[Dab][Dab]T; lactam 4-C)	> 500 mg/L

Looking up CC(C)CCCCC(=O)N[C@@H](CCN)C(=O)N[C@H](C(=O)N[C@H](CO)C(=O)N[C@H]1CCNC(=O)[C@H]([C@@H](C)O)NC(=O)[C@H](CCN)NC(=O)[C@H](CCN)NC(=O)[C@H]([C@@H](C)O)NC(=O)[C@@H](Cc2ccccc2)NC(=O)[C@H](CCN)NC1=O)[C@@H](C)OCS(=O)(=O)O [Compound 104] ({Heptanoyl(6-Me)}-[Dab]T(Sulfomethyl)[dS][Dab][Dab][dF]T[Dab][Dab]T; lactam 4-C) , I found its IC50 at 72 h recorded as > 500 mg/L

---

Reported MIC values are given for each entry in this list.
- Tested on: Pseudomonas aeruginosa ATCC 27853
- Type: cell-based
- Test conditions: ATCC 27853
Bridge positions count the residues as written; N and C are the ends. Square brackets hold non-standard residues; d marks the D form. Peptide text beside a SMILES is read from it. * marks the point of attachment. Dab(CH2SO3H) = N[C@@H](CCNCS(=O)(=O)O)C(=O)O; Heptanoyl(6-Me) = CC(C)CCCCC(=O)*; Sulfomethyl = O=S(=O)(O)C*; Nonanoyl = CCCCCCCCC(=O)*; dDab = NCC[C@@H](N)C(=O)O; Heptanoyl = CCCCCCC(=O)*; Octanoyl = CCCCCCCC(=O)*; Orn = NCCC[C@H](N)C(=O)O; Dab = NCC[C@H](N)C(=O)O; Dap = NC[C@H](N)C(=O)O
Give the quantity in µg/mL, number only.

Consider the following illustrative entries.
CC(C)CCCCC(=O)N[C@@H](CCN)C(=O)N[C@H](C(=O)N[C@@H](CN)C(=O)N[C@H]1CCNC(=O)[C@H]([C@@H](C)O)NC(=O)[C@H](CCN)NC(=O)[C@H](CCN)NC(=O)[C@H]([C@@H](C)O)NC(=O)[C@@H](Cc2ccccc2)NC(=O)[C@H](CCNCS(=O)(=O)O)NC1=O)[C@@H](C)O [Compound 118] ({Heptanoyl(6-Me)}-[Dab]T[Dap][Dab][Dab(CH2SO3H)][dF]T[Dab][Dab]T; lactam 4-C)	0.25
CC(C)CCCCC(=O)N[C@@H](CCN)C(=O)N[C@H](C(=O)N[C@H](COCS(=O)(=O)O)C(=O)N[C@H]1CCNC(=O)[C@H]([C@@H](C)O)NC(=O)[C@H](CCN)NC(=O)[C@H](CCN)NC(=O)[C@H]([C@@H](C)O)NC(=O)[C@@H](Cc2ccccc2)NC(=O)[C@H](CCN)NC1=O)[C@@H](C)O [Compound 103] ({Heptanoyl(6-Me)}-[Dab]T[dS](Sulfomethyl)[Dab][Dab][dF]T[Dab][Dab]T; lactam 4-C)	0.25
CCCCCCCC(=O)N[C@@H](CN)C(=O)N[C@H](C(=O)N[C@H](CCN)C(=O)N[C@H]1CCNC(=O)[C@H]([C@@H](C)O)NC(=O)[C@H](CCN)NC(=O)[C@H](CCN)NC(=O)[C@H](CC(C)C)NC(=O)[C@@H](Cc2ccccc2)NC(=O)[C@H](CCN)NC1=O)[C@@H](C)O [Compound 93] (Octanoyl-[Dap]T[dDab][Dab][Dab][dF]L[Dab][Dab]T; lactam 4-C)	1
CC(C)CCCCC(=O)N[C@@H](CCN)C(=O)N[C@H](C(=O)N[C@@H](CN)C(=O)N[C@H]1CCNC(=O)[C@H]([C@@H](C)OCS(=O)(=O)O)NC(=O)[C@H](CCN)NC(=O)[C@H](CCN)NC(=O)[C@H]([C@@H](C)O)NC(=O)[C@@H](Cc2ccccc2)NC(=O)[C@H](CCN)NC1=O)[C@@H](C)O [Compound 115] ({Heptanoyl(6-Me)}-[Dab]T[Dap][Dab][Dab][dF]T[Dab][Dab]T(Sulfomethyl); lactam 4-C)	0.25
CCCCCCC(=O)N[C@@H](CCN)C(=O)N[C@H](C(=O)N[C@H](CO)C(=O)N[C@H]1CCNC(=O)[C@H]([C@@H](C)O)NC(=O)[C@H](CCN)NC(=O)[C@H](CCN)NC(=O)[C@H]([C@@H](C)O)NC(=O)[C@@H](Cc2ccccc2)NC(=O)[C@H](CCCN)NC1=O)[C@@H](C)O [Compound 69] (Heptanoyl-[Dab]T[dS][Dab][Orn][dF]T[Dab][Dab]T; lactam 4-C)	64
CCCCCCCCC(=O)N[C@@H](CN)C(=O)N[C@H](C(=O)N[C@H](CO)C(=O)N[C@H]1CCNC(=O)[C@H]([C@@H](C)O)NC(=O)[C@H](CCN)NC(=O)[C@H](CCN)NC(=O)[C@H]([C@@H](C)O)NC(=O)[C@@H](Cc2ccccc2)NC(=O)[C@H](CCN)NC1=O)[C@@H](C)O [Compound 55] (Nonanoyl-[Dap]T[dS][Dab][Dab][dF]T[Dab][Dab]T; lactam 4-C)	64

Proceed to the following item.
Looking up CCCCCCCCC(=O)N[C@@H](CN)C(=O)N[C@H](C(=O)N[C@H](CCN)C(=O)N[C@H]1CCNC(=O)[C@H]([C@@H](C)O)NC(=O)[C@H](CCN)NC(=O)[C@H](CCN)NC(=O)[C@H](CC(C)C)NC(=O)[C@@H](CC(C)C)NC(=O)[C@H](CCN)NC1=O)[C@@H](C)O [Compound 100] (Nonanoyl-[Dap]T[dDab][Dab][Dab][dL]L[Dab][Dab]T; lactam 4-C) , I found its MIC recorded as 1
